- measured_target: human PDE2A1 (Homo sapiens (Human), UniProt O00408)
- Sequence (O00408 other isoform, or with tags, fused parts or gaps): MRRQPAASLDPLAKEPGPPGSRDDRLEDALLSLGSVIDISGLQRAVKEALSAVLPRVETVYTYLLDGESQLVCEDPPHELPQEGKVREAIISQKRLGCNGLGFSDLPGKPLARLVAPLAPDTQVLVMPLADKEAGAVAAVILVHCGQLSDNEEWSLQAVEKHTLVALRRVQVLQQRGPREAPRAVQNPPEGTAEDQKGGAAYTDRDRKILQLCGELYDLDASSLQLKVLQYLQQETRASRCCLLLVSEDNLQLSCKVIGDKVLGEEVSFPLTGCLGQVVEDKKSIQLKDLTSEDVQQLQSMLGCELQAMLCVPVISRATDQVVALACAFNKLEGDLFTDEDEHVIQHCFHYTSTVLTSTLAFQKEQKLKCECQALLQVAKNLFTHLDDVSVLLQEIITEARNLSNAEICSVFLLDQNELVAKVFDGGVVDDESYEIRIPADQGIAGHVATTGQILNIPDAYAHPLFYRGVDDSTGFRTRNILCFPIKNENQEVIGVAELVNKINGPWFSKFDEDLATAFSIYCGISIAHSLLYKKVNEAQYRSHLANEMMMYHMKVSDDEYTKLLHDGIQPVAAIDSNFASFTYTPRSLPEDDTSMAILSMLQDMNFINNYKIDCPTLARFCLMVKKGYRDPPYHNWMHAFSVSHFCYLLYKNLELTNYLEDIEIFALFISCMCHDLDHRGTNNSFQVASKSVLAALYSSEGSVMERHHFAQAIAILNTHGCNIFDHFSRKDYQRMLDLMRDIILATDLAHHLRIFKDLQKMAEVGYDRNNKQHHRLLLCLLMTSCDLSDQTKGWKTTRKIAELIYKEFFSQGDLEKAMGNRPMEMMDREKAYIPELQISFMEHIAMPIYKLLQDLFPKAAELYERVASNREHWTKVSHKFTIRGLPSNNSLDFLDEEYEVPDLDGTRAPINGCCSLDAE
- assay_comment: PDE2 fluorescence polarization (IMAP FP) inhibition assay, human enzyme
- Assay type: biochemical
- test_conditions: LabB; read-out: hPDE2 Ki (nM) LabB
test_readout: Ki (nM)
Report the value in nM with no unit label.

• COc1ccc(Cc2nc(-c3cn(C(C)c4ccc(C(F)(F)F)cc4F)cn3)cc(=O)[nH]2)cc1OC (single isomer, unassigned) = 0.4
• Cc1nc(-c2nnc([C@H](C)c3ccc(C(F)(F)F)cc3)s2)cc(=O)[nH]1 (single isomer, unassigned) [Example 6] = 12

Okay, next one:
// recorded Ki for Cc1nc(-c2cc([C@H](C)c3ccc(C(C)(C)O)cc3)ncn2)cc(=O)[nH]1 (single isomer, unassigned) [Example 47] : 1720

----------
- measured_target: Rhesus PDE2A3 (Macaca mulatta)
- assay_comment: PDE2 fluorescence polarization (IMAP FP) inhibition assay, rhesus enzyme
- Assay type: biochemical, rhesus macaque
- test_conditions: LabA; read-out: rhPDE2 Ki (nM) LabA
In this section, each of the compounds is paired with its reported Ki.
Report the value in nM with no unit label.

- Cc1nc(-c2nnc([C@H](C)c3ccc(C(F)(F)F)cc3)s2)cc(=O)[nH]1 (single isomer, unassigned) [Example 7]: 21
- Cc1nc(-c2nnc([C@H](C)c3ccc(C(F)(F)F)cc3)o2)cc(=O)[nH]1 (single isomer, unassigned) [Example 9]: 86
- Cc1nc(-c2cncc([C@@H](C)c3ccc(C(F)(F)F)cc3)c2)cc(=O)[nH]1 (single isomer, unassigned) [Example 24]: 826
- COc1ccc(Cc2nc(-c3cn(C(C)c4ccc(C(F)(F)F)cc4F)cn3)cc(=O)[nH]2)cc1OC (single isomer, unassigned) [Example 19]: 0.2
- Cc1nc(-c2ncc(C(C)c3ccc(C(F)(F)F)cc3)[nH]2)cc(=O)[nH]1 (stereo not shown) [Example 13]: 868

// recorded Ki for Cc1nc(-c2ccnc(C(C)c3ccc(C(F)(F)F)cc3)c2)cc(=O)[nH]1 (stereo not shown) [Example 27] : 1270

// recorded Ki for Cc1nc(-c2ncc(C(C)c3ccc(C(F)(F)F)cc3)o2)cc(=O)[nH]1 (stereo not shown) [Example 8] : 352

----------
- measured_target: Rhesus PDE2A3 (Macaca mulatta, UniProt B3VTJ2)
- Sequence (B3VTJ2 1-941): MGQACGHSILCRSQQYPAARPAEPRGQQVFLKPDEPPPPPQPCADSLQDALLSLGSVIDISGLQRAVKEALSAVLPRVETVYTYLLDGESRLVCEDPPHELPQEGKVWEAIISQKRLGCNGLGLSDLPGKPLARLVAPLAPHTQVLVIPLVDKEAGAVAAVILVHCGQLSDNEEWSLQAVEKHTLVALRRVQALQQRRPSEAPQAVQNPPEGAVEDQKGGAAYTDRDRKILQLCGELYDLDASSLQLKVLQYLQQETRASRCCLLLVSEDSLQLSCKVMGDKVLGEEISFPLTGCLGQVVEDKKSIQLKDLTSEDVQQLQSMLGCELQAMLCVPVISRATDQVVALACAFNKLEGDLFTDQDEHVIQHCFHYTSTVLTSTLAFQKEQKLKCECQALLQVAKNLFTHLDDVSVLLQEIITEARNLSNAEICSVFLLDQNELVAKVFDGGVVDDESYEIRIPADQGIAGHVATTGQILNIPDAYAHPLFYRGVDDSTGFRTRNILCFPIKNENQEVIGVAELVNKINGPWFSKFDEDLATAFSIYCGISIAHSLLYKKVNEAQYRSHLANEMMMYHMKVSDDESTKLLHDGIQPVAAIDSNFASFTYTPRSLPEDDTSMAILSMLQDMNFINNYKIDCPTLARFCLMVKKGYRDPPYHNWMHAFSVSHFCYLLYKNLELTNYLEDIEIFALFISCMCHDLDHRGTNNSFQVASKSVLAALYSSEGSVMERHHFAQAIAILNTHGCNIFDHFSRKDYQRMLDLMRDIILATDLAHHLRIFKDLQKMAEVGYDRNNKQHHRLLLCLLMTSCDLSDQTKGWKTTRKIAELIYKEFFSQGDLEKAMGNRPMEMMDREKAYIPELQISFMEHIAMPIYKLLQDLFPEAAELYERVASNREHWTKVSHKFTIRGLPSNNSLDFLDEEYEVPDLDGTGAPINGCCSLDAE
- assay_comment: PDE2 fluorescence polarization (IMAP FP) inhibition assay, rhesus enzyme
- Type: biochemical, rhesus macaque
- test_conditions: LabA; read-out: rhPDE2 Ki (nM) LabA
test_readout: Ki (nM)
Report the value in nM with no unit label.

Some entries whose results are on file:
• Cc1nc(-c2cncc(C(C)(O)c3ccc(C(F)(F)F)cc3)c2)cc(=O)[nH]1 (stereo not shown) [Example 26] = 1810
• Cc1nc(-c2nnc([C@H](C)c3ccc(C(F)(F)F)cc3)s2)cc(=O)[nH]1 (single isomer, unassigned) [Example 6] = 10

// recorded Ki for Cc1nc(-c2ncc(C(C)c3ccc(C(F)(F)F)cc3)s2)cc(=O)[nH]1 (stereo not shown) [Example 1] : 96

// recorded Ki for Cc1nc(-c2cncc(C(O)c3ccc(C(F)(F)F)cc3)c2)cc(=O)[nH]1 (stereo not shown) [Example 25] : 12900

// recorded Ki for COc1ccc(Cc2nc(-c3cn(C(C)c4ccc(C(F)(F)F)cc4F)cn3)cc(=O)[nH]2)cc1OC (single isomer, unassigned) [Example 18] : 2.3

// recorded Ki for Cc1nc(-c2nc(C(C)c3ccc(C(F)(F)F)cc3)no2)cc(=O)[nH]1 (stereo not shown) [Example 12] : 1870

----------
- measured_target: human PDE2A1 (Homo sapiens (Human))
- assay_comment: PDE2 fluorescence polarization (IMAP FP) inhibition assay, human enzyme
- Type: biochemical
- test_conditions: LabB; read-out: hPDE2 Ki (nM) LabB
- Method: The activity of the compounds in accordance with the present invention as PDE2 inhibitors may be readily determined using a fluorescence polarization (FP) methodology (Huang, W., et al., J. Biomol Screen, 2002, 7: 215). Selectivity for PDE2, as compared to other PDE families, was assessed using the IMAPR technology. Human PDE10A2 enzyme was prepared from cytosolic fractions of transiently transfected HEK cells. […]
In this section, each of the compounds is paired with its reported Ki.
Report the value in nM with no unit label.

Some entries whose results are on file:
- Cc1nc(-c2cc(C(C)c3ccc(OC(F)F)c(F)c3)ncn2)cc(=O)[nH]1 (single isomer, unassigned) [Example 35]: 232
- Cc1nc(-c2cc(C(C)c3ccc(OC(F)(F)F)cc3)ncn2)cc(=O)[nH]1 (single isomer, unassigned) [Example 45]: 194

// recorded Ki for Cc1nc(-c2cc(C(C)c3ccc(C(F)F)c(F)c3)ncn2)cc(=O)[nH]1 (single isomer, unassigned) [Example 39] : 174

----------
- measured_target: human PDE2A1 (Homo sapiens (Human), UniProt O00408)
- assay_comment: PDE2 fluorescence polarization (IMAP FP) inhibition assay, human enzyme
- Format: biochemical
- test_conditions: LabB; read-out: hPDE2 Ki (nM) LabB
test_readout: Ki

Some entries whose results are on file:
* Cc1nc(-c2cc([C@H](C)c3ccc(C(C)(C)O)cc3)ncn2)cc(=O)[nH]1 (single isomer, unassigned) [Example 46] | 890 nM
* Cc1nc(-c2cc(C(C)c3ccc(OC(F)(F)F)cc3)ncn2)cc(=O)[nH]1 (single isomer, unassigned) [Example 44] | 4.1 nM

Okay, next one:
// recorded Ki for Cc1nc(-c2cc(C(C)c3ccc(C(C)(F)F)cc3)ncn2)cc(=O)[nH]1 (single isomer, unassigned) [Example 37] : 65 nM

----------
In this section, each of the compounds is paired with its reported Ki.
- measured_target: human PDE2A1 (Homo sapiens (Human), UniProt O00408)
- assay_comment: PDE2 fluorescence polarization (IMAP FP) inhibition assay, human enzyme
- Type: biochemical
- test_conditions: LabB; read-out: hPDE2 Ki (nM) LabB
Report the value in nM with no unit label.

* Cc1nc(-c2nnc([C@H](C)c3ccc(C(F)(F)F)cc3)s2)cc(=O)[nH]1 (single isomer, unassigned) [Example 7] | 62
* Cc1nc(-c2cc(C(C)c3ccc(OC(F)F)c(F)c3)ncn2)cc(=O)[nH]1 (single isomer, unassigned) [Example 34] | 13
* Cc1nc(-c2cc(C(C)c3ccc(OC(F)(F)F)c(F)c3)ncn2)cc(=O)[nH]1 (single isomer, unassigned) [Example 40] | 1.8
* Cc1nc(-c2cc(C(C)c3ccc(OC(F)(F)F)c(F)c3)ncn2)cc(=O)[nH]1 (single isomer, unassigned) [Example 41] | 212

Okay, next one:
Lab note: compound Cc1nc(-c2cc(C(C)c3ccc(C(F)(F)F)cc3)ncn2)cc(=O)[nH]1 (single isomer, unassigned) [Example 32] tested on human PDE2A1 (Homo sapiens (Human), UniProt O00408); recorded Ki was 64

----------
- measured_target: human PDE2A1 (Homo sapiens (Human), UniProt O00408)
- assay_comment: PDE2 fluorescence polarization (IMAP FP) inhibition assay, human enzyme
- Type: biochemical
- test_conditions: LabA; read-out: hPDE2 Ki (nM) LabA
Please respond with Y when measured Ki is strictly beneath 80 nM, and with N in all other cases.

Here are 3 compounds together with their reported answers.
- Cc1nc(-c2ncc(C(C)c3ccc(C(F)(F)F)cc3)s2)cc(=O)[nH]1 (stereo not drawn) [Example 1]: Y
- Cc1nc(-c2nnc([C@H](C)c3ccc(C(F)(F)F)cc3)s2)cc(=O)[nH]1 (single isomer, unassigned) [Example 6]: Y
- Cc1nc(-c2cc(=O)[nH]c(C)n2)cc(C(C)c2ccc(C(F)(F)F)cc2)n1 (stereo not drawn) [Example 48]: N

In plain terms, does Cc1nc(-c2ncc(C(C)c3ccc(C(F)(F)F)cc3)o2)cc(=O)[nH]1 (stereo not drawn) [Example 8] come in under 80 nM for Ki?
N

In plain terms, does Cc1nc(-c2cn(C(C)c3ccc(C(F)(F)F)cc3)cn2)cc(=O)[nH]1 (single isomer, unassigned) [Example 17] come in under 80 nM for Ki?
Y

In plain terms, does Cc1nc(-c2cn([C@H](C)c3ccc(C(F)(F)F)cc3F)cn2)cc(=O)[nH]1 (single isomer, unassigned) [Example 15] come in under 80 nM for Ki?
Y

In plain terms, does Cc1nc(-c2nnc([C@H](C)c3ccc(C(F)(F)F)cc3)s2)cc(=O)[nH]1 (single isomer, unassigned) [Example 7] come in under 80 nM for Ki?
Y

In plain terms, does COc1ccc(Cc2nc(-c3cn(C(C)c4ccc(C(F)(F)F)cc4F)cn3)cc(=O)[nH]2)cc1OC (single isomer, unassigned) [Example 18] come in under 80 nM for Ki?
Y

----------
- measured_target: Rhesus PDE2A3 (Macaca mulatta, UniProt B3VTJ2)
- assay_comment: PDE2 fluorescence polarization (IMAP FP) inhibition assay, rhesus enzyme
- Type: biochemical, rhesus macaque
- test_conditions: LabA; read-out: rhPDE2 Ki (nM) LabA
test_readout: log10 Ki (log10 of the value in nM)
Log scale reminder: Ki in nM, then log10 taken.

* Cc1nc(-c2cn([C@H](C)c3ccc(C(F)(F)F)cc3F)cn2)cc(=O)[nH]1 (single isomer, unassigned) [Example 15] | 1.38
* Cc1nc(-c2cn(C(C)c3ccc(C(F)(F)F)cc3)cn2)cc(=O)[nH]1 (single isomer, unassigned) [Example 17] | 2.03
* Cc1nc(-c2nnc([C@H](C)c3ccc(C(F)(F)F)cc3)o2)cc(=O)[nH]1 (single isomer, unassigned) [Example 10] | 2.67
* Cc1nc(-c2cc(C(C)c3ccc(C(F)(F)F)cc3)ccn2)cc(=O)[nH]1 (stereo not shown) | 2.96
* Cc1nc(-c2noc(C(C)c3ccc(C(F)(F)F)cc3)n2)cc(=O)[nH]1 (stereo not shown) | 3.03

Lab note: molecule Cc1nc(-c2cc(=O)[nH]c(C)n2)cc(C(C)c2ccc(C(F)(F)F)cc2)n1 (stereo not shown) tested on Rhesus PDE2A3 (Macaca mulatta, UniProt B3VTJ2); recorded log10 Ki was 2.71

Lab note: molecule Cc1nc(-c2ccnc(C(C)(O)c3ccc(C(F)(F)F)cc3)c2)cc(=O)[nH]1 (stereo not shown) tested on Rhesus PDE2A3 (Macaca mulatta, UniProt B3VTJ2); recorded log10 Ki was 3.46

Ref: patent US10195201B2
